System: Staphylococcus epidermidis
assayComment: Antibacterial activity against oxymycin-, gentamicin-, levofloxacin-resistant Staphylococcus epidermidis 1269676
Format: functional
readout: MIC (µg/mL)
I only need the number, in µg/mL, no unit after it.

Give MIC for NCC[C@H](O)C(=O)N[C@@H]1C[C@H](N)[C@@H](O[C@H]2O[C@H](CN)[C@@H](O)[C@H](O)[C@H]2O)[C@H](O)[C@H]1O[C@H]1O[C@H](CO)[C@@H](O)[C@H](N)[C@H]1O
4

Give MIC for CN[C@@H]1[C@@H](O)[C@@H](O[C@@H]2[C@@H](O)[C@H](O[C@H]3O[C@H]([C@@H](C)NC)CC[C@H]3N)[C@@H](N)C[C@H]2N)OC[C@]1(C)O
32

Give MIC for NCC[C@H](O)C(=O)N[C@@H]1C[C@H](N)[C@@H](O[C@H]2O[C@H](CO)[C@@H](O)[C@H](O)[C@H]2N)[C@H](O[C@@H]2O[C@H](CO)[C@@H](O[C@H]3O[C@@H](CN)[C@@H](O)[C@H](O)[C@H]3N)[C@H]2O)[C@H]1O
0.5

The origin of these recorded values is ChEMBL document CHEMBL1287692.
